# MEASUREMENT TARGET: T1, human uPAR (recombinant protein used in ELISA and BLI) (human, UniProt Q03405 23-305, limits assumed)
# T1 construct: Whole entry named; also called biotinylated human uPAR
# T1 sequence (Q03405 23-305 limits assumed): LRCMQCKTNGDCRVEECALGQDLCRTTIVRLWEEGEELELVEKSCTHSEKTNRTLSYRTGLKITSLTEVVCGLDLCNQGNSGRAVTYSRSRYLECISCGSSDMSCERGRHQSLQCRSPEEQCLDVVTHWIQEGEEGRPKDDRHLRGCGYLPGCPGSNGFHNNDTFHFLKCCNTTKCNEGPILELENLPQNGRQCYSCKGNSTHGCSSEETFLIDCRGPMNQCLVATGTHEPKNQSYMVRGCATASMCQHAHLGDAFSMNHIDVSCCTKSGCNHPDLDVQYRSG
# PROTOCOL DESCRIPTION: BLI (Octet HTX)
Consider the following binders; for each one, report its pKd.
Notebook: values listed as pKd are -log10 of the concentration (mol/L).

Query string: Fill in: pKd of 3159 HC1 + LC1 (humanized) (antibody, V domains shown, detected with anti-human Fc antibody) VH: QVTLRESGPALVKPTQTLTLTCTLSGFSLSTSGMGVSWIRQPPGKALEWLAHIYWDDDKRYSTSLKTRLTISKDASKDQVVLTMTNMDTVDTATYYCGRRVRNYFSGTSYWYFDVWGTGTLVTVSS VL: DIVMTQTPLSLSVTPGQPASISCKSSQNILHRTGNTYLEWYLQKPGQPPQLLIYKVSNRFSGVPDRFSGSGSGTDFTLKISRVEAEDVGVYYCFQGSYVPFTFGQGTKLEIK is ___
Result string: 8.17

Query string: Same question, 11857 HC1 + LC1 (humanized) (antibody, V domains shown, detected with anti-human Fc antibody) VH: EVQLVQSGAEVKKPGATVKISCKVSGYTFTDYYMNWVQQAPGKSLEWMGNINPNNGGTDYNQKFQGRVTITADKSTSTAYMELSSLRSEDTAVYYCARSYGSRFPYWGLGTLVTVSS VL: DIQMTQSPSSLSASVGDRVTITCRASQDITNYLSWYQQKPGGTVKLLLYYTAVLQSGFPSRFSGSGSGADYTLTISSLQPEDFATYYCQQGHTLPWTFGGGTKVEIK this time
Result string: 6.90

Query string: Next entry: 11857 HC2 + LC1 (humanized) (antibody, V domains shown, detected with anti-human Fc antibody) VH: EVQLVQSGAEVKKPGASVKVSCKASGYTFTDYYMNWVRQAPGKSLEWMGNINPNNGGTDYSQKFQGRVTITVDTSASTAYMELSSLRSEDTAVYYCARSYGSRFPYWGLGTLVTVSS VL: DIQMTQSPSSLSASVGDRVTITCRASQDITNYLSWYQQKPGGTVKLLLYYTAVLQSGFPSRFSGSGSGADYTLTISSLQPEDFATYYCQQGHTLPWTFGGGTKVEIK
Result string: 6.90

Query string: Now consider 3159 HC3 + LC2 (humanized) (antibody, V domains shown, detected with anti-human Fc antibody) VH: QITLKESGPTLVKPTQTLTLTCTLSGFSLSTSGMGVSWIRQPPGKALEWLAHIYWDDDKRYNPSLKSRLTITKDASKDQVVLTMTNMDTVDTATYYCGRRVRNYFSGTSYWYFDVWGTGTLVTVSS VL: DVVMTQSPLSLPVTLGQPASISCRSSQNILHRTGNTYLEWFQQRPGQSPRLLIYKVSNRFSGVPDRFSGSGSGTDFTLKISRVEAEDVGVYYCFQGSYVPFTFGQGTKLEIK .
Result string: 8.33

Query string: // same read-out, input: 3159 HC1 + LC3 (humanized) (antibody, V domains shown, detected with anti-human Fc antibody) VH: QVTLRESGPALVKPTQTLTLTCTLSGFSLSTSGMGVSWIRQPPGKALEWLAHIYWDDDKRYSTSLKTRLTISKDASKDQVVLTMTNMDTVDTATYYCGRRVRNYFSGTSYWYFDVWGTGTLVTVSS VL: DIVMTQSPLSLPVTPGEPASISCRSSQNILHRTGNTYLDWYLQKPGQSPQLLIYKVSNRFSGVPDRFSGSGSGTDFTLKISRVEAEDVGVYYCFQGSYVPFTFGQGTKLEIK
Result string: 8.25
